Numbers sourced from patent US8445674B2.

Biological target: human chemokine receptor 2 isoform B (Homo sapiens)
Sequence (P41597 1-360 isoform P41597-2): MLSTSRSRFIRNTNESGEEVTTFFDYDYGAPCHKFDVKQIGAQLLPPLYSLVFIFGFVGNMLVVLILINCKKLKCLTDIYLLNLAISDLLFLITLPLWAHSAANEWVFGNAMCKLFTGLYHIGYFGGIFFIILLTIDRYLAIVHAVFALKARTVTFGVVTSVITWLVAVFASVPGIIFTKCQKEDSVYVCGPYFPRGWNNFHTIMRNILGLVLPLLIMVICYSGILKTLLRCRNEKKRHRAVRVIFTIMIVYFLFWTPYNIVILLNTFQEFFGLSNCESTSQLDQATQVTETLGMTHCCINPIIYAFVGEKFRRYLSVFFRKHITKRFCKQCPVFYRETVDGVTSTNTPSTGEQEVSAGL
Test: Calcium mobilization assay (FLIPR, antagonist activity against MCP-1)
Settings: Ca mobilisation assay, CHOK1-CCR2B-A5 cells, inhibition of calcium increase induced by 20 nM MCP-1
Experimental: Calcium Mobilization Assay […] Test compounds were added to the assay plate and agonist activity was monitored as fluorescence for 80 seconds with a FLIPR (488 nm excitation; 510-570 nm emission; Molecular Devices). After 20-30 min. of incubation at 30° C., 20 nM MCP-1 (R&D; Roche) was added and fluorescence was monitored again for 80 seconds. Increases in intracellular calcium are reported as maximum fluorescence after agonist exposure minus basal fluorescence before exposure. […]
pIC50: −log10 of the molar value.
Param threshold (6) applies to pIC50; output true when value >= threshold, false when value < threshold.

compound	class_label
CN1CCN(C(=O)CCN2CCN(C(=O)/C=C/c3ccc(Cl)c(Cl)c3)CCC2=O)CC1=O	false
C[C@@H]1CN(CCCC(=O)N2CCC3(CC3)[C@H](O)C2)C(=O)CCN1c1ccc(C(F)(F)F)c(Cl)c1	true
CC1(O)CCCN(C(=O)CN2CCN(C(=O)/C=C/c3ccc(Cl)c(Cl)c3)CCC2=O)C1 (racemic)	true
C[C@H]1C(=O)N(CCCC(=O)N2CCC3(CC3)[C@H](O)C2)C(C(=O)O)CN1C(=O)Nc1ccc(Cl)c(Cl)c1 (mixture of isomers)	true
COC(=O)[C@H](CCC(=O)N1CCC2(CC2)[C@H](O)C1)N1CCN(c2ccc(C(F)(F)F)c(Cl)c2)CCC1=O	true
C[C@H]1C(=O)N(CC(O)CC(=O)N2CCC3(CC3)[C@H](O)C2)CCN1C(=O)Nc1ccc(OC(F)(F)F)c(Cl)c1 (stereo partly shown)	true

###

Target: human chemokine receptor 2 isoform B (Homo sapiens)
Sequence (P41597 1-360 isoform P41597-2): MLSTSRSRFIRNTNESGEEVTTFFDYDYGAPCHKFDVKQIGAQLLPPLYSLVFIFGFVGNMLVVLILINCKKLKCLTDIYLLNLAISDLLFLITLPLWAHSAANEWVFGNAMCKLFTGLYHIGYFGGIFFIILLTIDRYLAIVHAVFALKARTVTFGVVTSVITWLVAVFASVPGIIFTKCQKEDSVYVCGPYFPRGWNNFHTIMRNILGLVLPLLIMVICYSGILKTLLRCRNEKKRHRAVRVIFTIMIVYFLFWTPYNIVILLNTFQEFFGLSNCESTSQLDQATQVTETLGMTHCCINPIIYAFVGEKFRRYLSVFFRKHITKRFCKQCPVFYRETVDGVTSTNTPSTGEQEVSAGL
Test: Calcium mobilization assay (FLIPR, antagonist activity against MCP-1)
Conditions: Ca mobilisation assay, CHOK1-CCR2B-A5 cells, inhibition of calcium increase induced by 20 nM MCP-1
pIC50: −log10 of the molar value.

smiles_data	pIC50
C[C@@H]1CN(CCCC(=O)N2CCC3(CC3)[C@H](O)C2)C(=O)C=CN1c1ccc(C(F)(F)F)c(Cl)c1	6.21
COC(=O)[C@H](CCC(=O)N1CCC2(CC2)[C@H](O)C1)N1CCN(C(=O)Nc2ccc(C(F)(F)F)c(C(F)(F)F)c2)[C@@H](C)C1=O	6.47
O=C1NC(=O)C2(CCN(C(=O)CCN3CCN(C(=O)/C=C/c4ccc(Cl)c(Cl)c4)CCC3=O)CC2)N1	5.40
C[C@@H]1CN(CCC(=O)N2CCCCC2)C(=O)CCN1C(=O)/C=C/c1cccc(Cl)c1	5.61
